# System: LG0703-F948-PDC complex spheroid viability
# experiment description: Anticancer human tumor LG0703-F948-PDC patient-derived lung adenocarcinoma cell line growth inhibition [RAS]
# particulars: second compound 0.01 µM; first compound 0.1 µM; stronger effect = lower value
Rule: measured viability, T/C below 30% gets 1.0; anything equal to or greater than 30% gets 0.0.

Q. I wonder whether CC(Nc1ccc2c(c1)OCCn1cc(N3C(=O)OCC3C(F)F)nc1-2)C(N)=O (stereo not drawn) + C=CC(=O)N1CCN(c2nc(OCC3CCCN3C)nc3c(F)c(-c4nc(N)cc(C)c4C(F)(F)F)c(Cl)cc23)C(C)C1 has viability, T/C below 30%. Can you tell?
A. 0.0

Q. I wonder whether C=CC(=O)Nc1cc(Nc2nccc(-c3cn(C)c4ccccc34)n2)c(OC)cc1N(C)CCN(C)C + C=CC(=O)N1CCN(c2nc(OCC3CCCN3C)nc3c(F)c(-c4nc(N)cc(C)c4C(F)(F)F)c(Cl)cc23)C(C)C1 has viability, T/C below 30%. Can you tell?
A. 1.0

Q. I wonder whether CC(=O)OC12COC1CC(O)C1(C)C(=O)C(O)C3=C(C)C(OC(=O)C(O)C(NC(=O)OC(C)(C)C)c4ccccc4)CC(O)(C(OC(=O)c4ccccc4)C21)C3(C)C (stereo not drawn) + C=CC(=O)N1CCN(c2nc(OCC3CCCN3C)nc3c(F)c(-c4nc(N)cc(C)c4C(F)(F)F)c(Cl)cc23)C(C)C1 has viability, T/C below 30%. Can you tell?
A. 1.0

Q. I wonder whether C[C@@H](NC(=O)c1ncnc(N)c1Cl)c1ncc(C(=O)Nc2cc(C(F)(F)F)c(Cl)cn2)s1 + C=CC(=O)N1CCN(c2nc(OCC3CCCN3C)nc3c(F)c(-c4nc(N)cc(C)c4C(F)(F)F)c(Cl)cc23)C(C)C1 has viability, T/C below 30%. Can you tell?
A. 0.0

Q. I wonder whether CCN1CCN(Cc2ccc(Nc3ncc(F)c(-c4cc(F)c5nc(C)n(C(C)C)c5c4)n3)nc2)CC1 + C=CC(=O)N1CCN(c2nc(OCC3CCCN3C)nc3c(F)c(-c4nc(N)cc(C)c4C(F)(F)F)c(Cl)cc23)C(C)C1 has viability, T/C below 30%. Can you tell?
A. 0.0

Q. I wonder whether CC(C)NCC(C(=O)N1CCN(c2ncnc3c2C(C)CC3O)CC1)c1ccc(Cl)cc1 (stereo not drawn) + C=CC(=O)N1CCN(c2nc(OCC3CCCN3C)nc3c(F)c(-c4nc(N)cc(C)c4C(F)(F)F)c(Cl)cc23)C(C)C1 has viability, T/C below 30%. Can you tell?
A. 0.0

Q. I wonder whether O=C(c1ccc(F)c(F)c1Nc1ccc(I)cc1F)N1CC(O)([C@@H]2CCCCN2)C1 + C=CC(=O)N1CCN(c2nc(OCC3CCCN3C)nc3c(F)c(-c4nc(N)cc(C)c4C(F)(F)F)c(Cl)cc23)C(C)C1 has viability, T/C below 30%. Can you tell?
A. 1.0

Q. I wonder whether CC(C)n1nc(-c2ccc3oc(N)nc3c2)c2c(N)ncnc21 + C=CC(=O)N1CCN(c2nc(OCC3CCCN3C)nc3c(F)c(-c4nc(N)cc(C)c4C(F)(F)F)c(Cl)cc23)C(C)C1 has viability, T/C below 30%. Can you tell?
A. 1.0

* * *

# Tested on: LG0703-F948-PDC complex spheroid viability
# experiment description: Anticancer human tumor LG0703-F948-PDC cell line growth inhibition [RAS]; active means viability on the fitted dose curve at most 10% of control; inactive means the rest;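 also: spheroids exposed to agents for 7 days; 100% = DMSO vehicle wells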
# particulars: second compound 0.0949 µM; first compound 0.316 µM
Choose the fitting class; nothing outside 1 = active, 0 = inactive is accepted.

Q. Give the logged outcome of this assay for the following compound: CC(=O)OC12COC1CC(O)C1(C)C(=O)C(O)C3=C(C)C(OC(=O)C(O)C(NC(=O)OC(C)(C)C)c4ccccc4)CC(O)(C(OC(=O)c4ccccc4)C21)C3(C)C (stereo not drawn) + CCn1c(-c2cccnc2C(C)OC)c2c3cc(ccc31)N1CCOC(CC(NC(=O)C(C(C)C)N(C)C(=O)C3(F)CCN(C(=O)C#CC(C)(C)N(C)C)CC3)C(=O)N3CCCC(N3)C(=O)OCC(C)(C)C2)C1
A. 0

Q. Give the logged outcome of this assay for the following compound: CCC(CC)c1cc(NC2CCC(N)C2)n2nccc2n1 (stereo not drawn) + CCn1c(-c2cc(N3CCN(C)CC3)cnc2C(C)OC)c2c3cc(ccc31)-c1csc(n1)CC(NC(=O)C1CC1C)C(=O)N1CCCC(N1)C(=O)OCC(C)(C)C2
A. 1

Q. Give the logged outcome of this assay for the following compound: O=C(c1ccc(F)c(F)c1Nc1ccc(I)cc1F)N1CC(O)([C@@H]2CCCCN2)C1 + CCn1c(-c2cccnc2C(C)OC)c2c3cc(ccc31)N1CCOC(CC(NC(=O)C(C(C)C)N(C)C(=O)C3(F)CCN(C(=O)C#CC(C)(C)N(C)C)CC3)C(=O)N3CCCC(N3)C(=O)OCC(C)(C)C2)C1
A. 0

Q. Give the logged outcome of this assay for the following compound: CC(C)NCC(C(=O)N1CCN(c2ncnc3c2C(C)CC3O)CC1)c1ccc(Cl)cc1 (stereo not drawn) + CCn1c(-c2cc(N3CCN(C)CC3)cnc2C(C)OC)c2c3cc(ccc31)-c1csc(n1)CC(NC(=O)C1CC1C)C(=O)N1CCCC(N1)C(=O)OCC(C)(C)C2
A. 1

Q. Give the logged outcome of this assay for the following compound: CC1(O)CCCC1n1c(=O)c(C(F)F)cc2cnc(NC3CCN(S(C)(=O)=O)CC3)nc21 (stereo not drawn) + CCn1c(-c2cc(N3CCN(C)CC3)cnc2C(C)OC)c2c3cc(ccc31)-c1csc(n1)CC(NC(=O)C1CC1C)C(=O)N1CCCC(N1)C(=O)OCC(C)(C)C2
A. 0

Q. Give the logged outcome of this assay for the following compound: C[C@@H](NC(=O)c1ncnc(N)c1Cl)c1ncc(C(=O)Nc2cc(C(F)(F)F)c(Cl)cn2)s1 + CCn1c(-c2cc(N3CCN(C)CC3)cnc2C(C)OC)c2c3cc(ccc31)-c1csc(n1)CC(NC(=O)C1CC1C)C(=O)N1CCCC(N1)C(=O)OCC(C)(C)C2
A. 0

Q. Give the logged outcome of this assay for the following compound: O=C(c1ccc(F)c(F)c1Nc1ccc(I)cc1F)N1CC(O)([C@@H]2CCCCN2)C1 + CCn1c(-c2cc(N3CCN(C)CC3)cnc2C(C)OC)c2c3cc(ccc31)-c1csc(n1)CC(NC(=O)C1CC1C)C(=O)N1CCCC(N1)C(=O)OCC(C)(C)C2
A. 1

Q. Give the logged outcome of this assay for the following compound: CCN1CCN(Cc2ccc(Nc3ncc(F)c(-c4cc(F)c5nc(C)n(C(C)C)c5c4)n3)nc2)CC1 + CCn1c(-c2cc(N3CCN(C)CC3)cnc2C(C)OC)c2c3cc(ccc31)-c1csc(n1)CC(NC(=O)C1CC1C)C(=O)N1CCCC(N1)C(=O)OCC(C)(C)C2
A. 0
